# ASSAYED_SYSTEM: Monoglyceride lipase (Homo sapiens) (UniProt Q99685)
# Sequence (whole entry): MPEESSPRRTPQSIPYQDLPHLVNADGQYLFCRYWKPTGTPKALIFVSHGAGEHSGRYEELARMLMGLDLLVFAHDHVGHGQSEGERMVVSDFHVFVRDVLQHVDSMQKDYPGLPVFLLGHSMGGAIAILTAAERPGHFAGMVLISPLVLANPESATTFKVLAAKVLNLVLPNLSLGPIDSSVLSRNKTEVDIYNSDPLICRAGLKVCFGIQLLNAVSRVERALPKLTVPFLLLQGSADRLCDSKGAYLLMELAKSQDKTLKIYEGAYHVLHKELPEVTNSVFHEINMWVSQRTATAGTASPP
# EXPERIMENT_SUMMARY: Inhibition of human recombinant MGL using 2-oleoylglycerol at 1 uM by competitive hydrolysis assay
OUTCOME_MEASURE: inhibition
# output: number + unit

# annotated cases, reported inhibition shown
[
  {
    "COMPOUND": "C=CCCC(=O)O[C@H](C)[C@H]1C(=O)N(C(=O)CCC=C)[C@@H]1OC(C)=O",
    "ASSAYED_SYSTEM": "Monoglyceride lipase (Homo sapiens) (UniProt Q99685)",
    "OUTCOME_MEASURE": "inhibition",
    "RESULT": "33%"
  },
  {
    "COMPOUND": "C[C@@H](OC(=O)CCCCc1ccccc1)[C@@H]1CN(C(=O)CCc2ccccc2)C1=O",
    "ASSAYED_SYSTEM": "Monoglyceride lipase (Homo sapiens) (UniProt Q99685)",
    "OUTCOME_MEASURE": "inhibition",
    "RESULT": "0%"
  },
  {
    "COMPOUND": "C[C@@H](OC(=O)CCc1ccccc1)[C@@H]1CN(C(=O)CCc2ccccc2)C1=O",
    "ASSAYED_SYSTEM": "Monoglyceride lipase (Homo sapiens) (UniProt Q99685)",
    "OUTCOME_MEASURE": "inhibition",
    "RESULT": "0%"
  }
]

Query: Give the value of inhibition reported for the following: CC(=O)O[C@@H]1[C@@H]([C@@H](C)OC(=O)Cc2ccc(-c3ccccc3)cc2)C(=O)N1C(=O)CCCc1ccccc1
Response: 0%
